Listed here: items and their measured pKa.
- experiment: Dissociation constant, pKa of the compound by potentiometric titration
- Format: physicochemical
Kindly provide the number alone.

{"columns": ["compound string", "pKa"],
 "data": [
  ["O=C(Nc1cccc(OCc2cccc(F)c2)c1)C1CCN(c2ccncc2)CC1", 9],
  ["Nc1ccc(N2CCC(C(=O)Nc3cccc(OCc4ccc(F)cc4)c3)CC2)cc1", 3]
]}

q: Which pKa is listed for O=C(Nc1cccc(OCc2ccc3c(c2)OCO3)c1)C1CCN(c2ccncc2)CC1 ?
a: 9.1

q: Here is the next compound: CC(C)N1CCC(C(=O)Nc2cccc(OCc3ccc(F)cc3)c2)CC1
a: 9.4

q: Another: O=C(Nc1cccc(OCc2ccc(F)cc2)c1)C1CCN(c2ccncc2)CC1
a: 8.9

q: Moving on to O=C(Nc1cccc(OCc2ccc(F)cc2)c1)C1CCN(c2ncccn2)CC1
a: 6
